Test: Probe fluorescence ratio response to linolenic acid relative to ADIFAB2
Assay type: binding
Conditions: response relative to ADIFAB2
Excerpt: In an alternate preferred embodiment, the protein is rI-FABP that has Ala substituted for Leu at position 72 (rI-FABP-L72A) with the resulting probe named ADIFAB2. […] ADIFAB2 also has an altered spectral response, making it especially useful for measurements of FFAu in blood samples (Apple et al, Clinical Proteomics, (2004) 1:41-44, U.S. patent application Ser. No. 10/670,958). […] The baseline value for this ratio, measured in the absence of analyte, is designated R0. […]
Field 'label' (enum: true (1) / false (0)). Set to true (1) when DR/DR LNA is strictly under 1; else false (0).

# MOLECULE, ASSIGNED CLASS
measured = [
    ("11W, 72A (protein, listed as Rattus norvegicus, PEPTIDE (1)...(131) wild-type rat intestinal fatty acid binding protein) AFDGTWKVDRWENYEKFMEKMGINVVKRKLGAHDNLKLTITQEGNKFTVKESSNFRNIDVVFELGVDFAYSAADGTELTGTWTMEGNKLVGKFKRVDNGKELIAVREISGNELIQTYTYEGVEAKRIFKKE", "true (1)"),
    ("73W 72A 74F (protein, listed as Rattus norvegicus, PEPTIDE (1)...(131) wild-type rat intestinal fatty acid binding protein) AFDGTWKVDRNENYEKFMEKMGINVVKRKLGAHDNLKLTITQEGNKFTVKESSNFRNIDVVFELGVDFAYSAWFGTELTGTWTMEGNKLVGKFKRVDNGKELIAVREISGNELIQTYTYEGVEAKRIFKKE", "false (0)"),
    ("78W1, 72A (protein, listed as Rattus norvegicus, PEPTIDE (1)...(131) wild-type rat intestinal fatty acid binding protein) AFDGTWKVDRNENYEKFMEKMGINVVKRKLGAHDNLKLTITQEGNKFTVKESSNFRNIDVVFELGVDFAYSAADGTEWTGTWTMEGNKLVGKFKRVDNGKELIAVREISGNELIQTYTYEGVEAKRIFKKE", "true (1)"),
    ("73S, 72A (protein, listed as Rattus norvegicus, PEPTIDE (1)...(131) wild-type rat intestinal fatty acid binding protein) AFDGTWKVDRNENYEKFMEKMGINVVKRKLGAHDNLKLTITQEGNKFTVKESSNFRNIDVVFELGVDFAYSASDGTELTGTWTMEGNKLVGKFKRVDNGKELIAVREISGNELIQTYTYEGVEAKRIFKKE", "false (0)"),
    ("14W, 72A (protein, listed as Rattus norvegicus, PEPTIDE (1)...(131) wild-type rat intestinal fatty acid binding protein) AFDGTWKVDRNENWEKFMEKMGINVVKRKLGAHDNLKLTITQEGNKFTVKESSNFRNIDVVFELGVDFAYSAADGTELTGTWTMEGNKLVGKFKRVDNGKELIAVREISGNELIQTYTYEGVEAKRIFKKE", "true (1)"),
    ("36C3, 72A (protein, listed as Rattus norvegicus, PEPTIDE (1)...(131) wild-type rat intestinal fatty acid binding protein) AFDGTWKVDRNENYEKFMEKMGINVVKRKLGAHDNCKLTITQEGNKFTVKESSNFRNIDVVFELGVDFAYSAADGTELTGTWTMEGNKLVGKFKRVDNGKELIAVREISGNELIQTYTYEGVEAKRIFKKE", "true (1)"),
    ("115E1, 72A (protein, listed as Rattus norvegicus, PEPTIDE (1)...(131) wild-type rat intestinal fatty acid binding protein) AFDGTWKVDRNENYEKFMEKMGINVVKRKLGAHDNLKLTITQEGNKFTVKESSNFRNIDVVFELGVDFAYSAADGTELTGTWTMEGNKLVGKFKRVDNGKELIAVREISGNELIETYTYEGVEAKRIFKKE", "true (1)"),
    ("47E3, L72A (protein, listed as Rattus norvegicus, PEPTIDE (1)...(131) wild-type rat intestinal fatty acid binding protein) AFDGTWKVDRNENYEKFMEKMGINVVKRKLGAHDNLKLTITQEGNKETVKESSNFRNIDVVFELGVDFAYSAADGTELTGTWTMEGNKLVGKFKRVDNGKELIAVREISGNELIQTYTYEGVEAKRIFKKE", "false (0)"),
    ("119M, 72A (protein, listed as Rattus norvegicus, PEPTIDE (1)...(131) wild-type rat intestinal fatty acid binding protein) AFDGTWKVDRNENYEKFMEKMGINVVKRKLGAHDNLKLTITQEGNKFTVKESSNFRNIDVVFELGVDFAYSAADGTELTGTWTMEGNKLVGKFKRVDNGKELIAVREISGNELIQTYTMEGVEAKRIFKKE", "false (0)"),
    ("21F 78I 102F 72A (protein, listed as Rattus norvegicus, PEPTIDE (1)...(131) wild-type rat intestinal fatty acid binding protein) AFDGTWKVDRNENYEKFMEKFGINVVKRKLGAHDNLKLTITQEGNKFTVKESSNFRNIDVVFELGVDFAYSAADGTEITGTWTMEGNKLVGKFKRVDNGKEFIAVREISGNELIQTYTYEGVEAKRIFKKE", "false (0)"),
]

Query molecule follows.
[in] Consider 91Y, 72A (protein, listed as Rattus norvegicus, PEPTIDE (1)...(131) wild-type rat intestinal fatty acid binding protein) AFDGTWKVDRNENYEKFMEKMGINVVKRKLGAHDNLKLTITQEGNKFTVKESSNFRNIDVVFELGVDFAYSAADGTELTGTWTMEGNKLVYKFKRVDNGKELIAVREISGNELIQTYTYEGVEAKRIFKKE . Does its DR/DR LNA lie strictly below 1?
[out] false (0)
